System name: T1, DMC1 (untagged full-length human DMC1, wild type) (human, UniProt Q14565 1-340)
T1 sequence (looked up): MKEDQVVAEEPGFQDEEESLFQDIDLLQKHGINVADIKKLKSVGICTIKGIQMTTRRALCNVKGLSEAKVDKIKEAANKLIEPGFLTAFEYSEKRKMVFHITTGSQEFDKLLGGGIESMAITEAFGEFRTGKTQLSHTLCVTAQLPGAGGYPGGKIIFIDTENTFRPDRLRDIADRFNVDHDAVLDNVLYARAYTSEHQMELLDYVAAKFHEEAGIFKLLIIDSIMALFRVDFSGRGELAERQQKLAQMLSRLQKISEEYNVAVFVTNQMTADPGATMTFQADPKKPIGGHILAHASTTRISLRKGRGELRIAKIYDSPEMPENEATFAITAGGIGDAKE
Measurement notes: BLI
pKd: −log10 of the molar value. The star is where a group is joined. Biotin = O=C1N[C@H]2[C@H](CS[C@H]2CCCCC(=O)*)N1
The following binders are shown together with reported pKd values.

Record excerpt, results attached:
Biotin-GSGRSRGILGKFVPPIPKQDGGE-NH2 [biotinylated FIGNL1 P-motif peptide]    ~4.79
Biotin-GSGTTGRPTKVFVPPFKTKSHFH-NH2 [biotinylated BRCA2 F2s6 peptide (Biotin-GSG-F2s6-NH2)]    ~9.00

# context switch: different binder, same pKd
Exercise: So what does the record say about pKd for Biotin-GSGSAESKKPKWVPPAASGGSRS-NH2 [biotinylated RAD51AP1 P-motif peptide] ?
Key: ~5.80
